Target: T1, NHERF1 PDZ1 domain (human, UniProt O14745 1-139)
T1 sequence (looked up): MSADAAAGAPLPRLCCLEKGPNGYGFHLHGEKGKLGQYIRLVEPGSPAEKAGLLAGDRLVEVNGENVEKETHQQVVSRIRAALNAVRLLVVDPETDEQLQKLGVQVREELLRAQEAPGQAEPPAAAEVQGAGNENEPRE
Test: fluorescence polarisation
assay-readout: Ki (nM)

binder="CGGAALKEETEEEVQDTRL [CGG-CFTR16]" value_measured=209
binder="CVQDTRL [C-CFTR6]" value_measured=670
binder="CTEEEVQDTRL [C-CFTR10]" value_measured=597
binder="CDTRL [C-CFTR4]" value_measured=1520

Where do these numbers come from? They come from paper PMC2582146.
